assay: MTT cell viability / cytotoxicity on normal fibroblasts; type: cell-based, mouse; settings: mouse, NCTC clone 929 (L929) mouse fibroblast cells, 25 µg/mL, 24h
parameter.measured: viability at 24 h, 25 µg/mL (%)
One number for each entry, in %.

Ask: Which viability at 24 h, 25 µg/mL value belongs to Cc1nn(CNc2ccc(Br)cc2)c(C)c1[N+](=O)[O-] ?
Result: 95.5

Ask: Which viability at 24 h, 25 µg/mL value belongs to Cc1nn(CNc2ccc(F)cc2)c(C)c1[N+](=O)[O-] ?
Result: 90.2

Ask: Which viability at 24 h, 25 µg/mL value belongs to Cc1nn(CNc2cccc(Cl)c2)c(C)c1[N+](=O)[O-] ?
Result: 95.6

State recorded viability at 24 h, 25 µg/mL for all listed molecules.
1. Cc1nn(CNc2ccc(Cl)cc2)c(C)c1[N+](=O)[O-]
2. Cc1nn(CNc2ccc(I)cc2)c(C)c1[N+](=O)[O-]
3. Cc1nn(CNc2ccccc2Cl)c(C)c1[N+](=O)[O-]

Result:
1: 96.3; 2: 102; 3: 93.7
